Molecular target: T1, human TL1A extracellular domain with N-terminal HIS and FLAG tag (human, UniProt O95150 72-251)
T1 construct: the whole entry is named; also called TNFSF15
T1 sequence: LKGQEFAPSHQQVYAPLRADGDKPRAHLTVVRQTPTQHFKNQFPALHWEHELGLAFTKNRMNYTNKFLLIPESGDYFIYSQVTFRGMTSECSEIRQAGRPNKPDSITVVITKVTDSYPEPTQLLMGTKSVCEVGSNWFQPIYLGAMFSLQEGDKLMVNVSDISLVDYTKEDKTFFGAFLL
Test: SPR Run 7, antibody on Protein A, TL1A 5 ug/mL, timepoint 44
Exercise: for every item that follows, state its recorded TL1A Binding Level (Early).
Numbers only, in RU.

Please review the entries below; each comes with its answer.
[[record]]
binder = "320-554 (antibody, human IgG1, name in Kabat numbering, V domains shown, full-length human IgG1, lambda) VH: QVQLVQSGAEVKKPGASVKVSCKASGYTFTSYDINWVRQAPGQGLEWMGWLNPNSGNLGYAQKFQGRVTMTADRSTSTAYMELSSLRSEDTAVYYCAREVPETAAFEYWGQGTLVTVSS VL: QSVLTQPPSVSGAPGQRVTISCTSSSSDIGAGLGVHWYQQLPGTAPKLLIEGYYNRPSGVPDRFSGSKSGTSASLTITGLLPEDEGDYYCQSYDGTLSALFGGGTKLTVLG"
unitofmeasurement = "RU"
observedmeasurement = 66

[[record]]
binder = "320-556 (antibody, human IgG1, name in Kabat numbering, V domains shown, full-length human IgG1, lambda) VH: QVQLVQSGAEVKKPGASVKVSCKASGYTFTSYDINWVRQAPGQGLEWMGWLNPNSGNYGYAQKFQGRVTMTADRSTSTAYMELSSLRSEDTAVYYCAREVPETAAFEYWGQGTLVTVSS VL: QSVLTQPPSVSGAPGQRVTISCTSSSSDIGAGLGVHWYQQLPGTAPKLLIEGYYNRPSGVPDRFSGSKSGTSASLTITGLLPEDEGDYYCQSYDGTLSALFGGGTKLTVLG"
unitofmeasurement = "RU"
observedmeasurement = 100


Now, please, on to the next binder.
# get_value(readout='TL1A Binding Level (Early)', item= 320-561 (antibody, human IgG1, name in Kabat numbering, V domains shown, full-length human IgG1, lambda) VH: QVQLVQSGAEVKKPGASVKVSCKASGYTFTSYDINWVRQAPGQGLEWMGWLNPNSGNTHYAQKFQGRVTMTADRSTSTAYMELSSLRSEDTAVYYCAREVPETAAFEYWGQGTLVTVSS VL: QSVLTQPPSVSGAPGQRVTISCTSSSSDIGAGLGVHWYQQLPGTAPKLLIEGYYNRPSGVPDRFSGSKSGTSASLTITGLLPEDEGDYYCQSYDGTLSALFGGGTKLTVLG )
14
